assay: IEC-6 cell viability reduction – luminescence, cytotoxicity control for KLF5 inhibitor project, primary screen (AID 1825); settings: IEC-6 cytotoxicity, at 5 µM, stronger effect = higher value;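 note: 0% = plate median of test compound wells and 100% = cytotoxic reference compound wells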
Screen size: about 290,000 compounds; about 2,300 (0.79%) were called active. The full list was thinned out, with actives kept by preference.
MEASURE_NAME: inhibition (%)

1. Cc1[nH]c(C)c(S(=O)(=O)N2CCN(c3cccc(C(F)(F)F)c3)CC2)c1C(=O)N1CCCC1 = -1.3
2. COc1ccccc1-c1nnc(NC(=O)c2cccc(N3C(=O)CCC3=O)c2)o1 = -5.8
3. COc1ccccc1-c1nnc(NC(=O)c2ccc3ncsc3c2)o1 = 22.8
4. COc1ccc(CCNC(=O)c2c(C)nn(-c3ccccc3)c2Cl)cc1 = -1.7
5. COc1ccccc1-c1nnc(SCC(=O)Nc2ccccc2)o1 = -0.6
